# System: Plasmodium falciparum
# assay-overview: Antimalarial activity against Plasmodium falciparum K1 infected human A+ erythrocytes by [3H]hypoxanthine uptake
# Format: functional, organism-based
readout-label: pIC50
Answers are plain numbers, as −log10 of the molar value.

# input // fetch pIC50 given entry "CC[C@@H](C)[C@H](N)C(=O)N(C)[C@H](Cc1ccccc1)C(=O)N[C@@H](CC(C)C)C(=O)Nc1ccccc1C(=O)O"
# output 5.10
